Target: somatostatin receptors (Rattus norvegicus, UniProt P30680)
Construct: endogenous in cells; host or cells: AR42J rat pancreatic tumor cell membranes
Sequence (P30680 whole entry): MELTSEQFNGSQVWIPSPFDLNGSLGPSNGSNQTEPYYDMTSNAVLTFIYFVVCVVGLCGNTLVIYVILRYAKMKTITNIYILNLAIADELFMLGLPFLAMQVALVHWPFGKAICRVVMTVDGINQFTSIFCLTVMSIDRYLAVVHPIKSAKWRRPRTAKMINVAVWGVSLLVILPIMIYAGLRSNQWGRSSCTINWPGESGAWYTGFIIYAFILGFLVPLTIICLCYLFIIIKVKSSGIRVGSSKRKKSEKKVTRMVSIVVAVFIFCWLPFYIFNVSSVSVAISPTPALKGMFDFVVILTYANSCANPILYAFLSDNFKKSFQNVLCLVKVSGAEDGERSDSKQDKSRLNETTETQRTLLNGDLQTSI
Assay: Inhibition of binding of (125I-Tyr11)somatostatin-14 to AR42J rat pancreatic tumor cell membranes
Details: (Re=O)-complexed peptides; displacement of (125I-Tyr11)somatostatin-14, AR42J cell membranes
Each entry below carries its recorded pKi.
Please report pKi as the negative decimal logarithm of the molar concentration, giving only the number.

Example entries and their recorded answers appear below.
1) Ac.FD FYWD KTFTGGG(ε-K)KC.amide ... 8.21
2) KD KKKFD.Cpa.YWD KTF.Nal.(ε-K)GCDDDD.amide ... 8.09

Note: attention shifts to another entry.
Any idea what pKi was measured for KDKKK.NalD.Cpa.YWD KTFT(ε-K)GCKDKD.amide ?
8.42
